Test system: MCF-7 luminal breast cancer cell line
test details: Cell growth inhibition, Sulforhodamine B assay (SRB)
Type: cell-based
run parameters: Homo sapiens, MCF7, 120 h; MCF-7 luminal breast cancer cell line; 5 days culture; SRB; read-out: Cell Line GI50 Range MCF-7
metric: GI50

Some compounds with known GI50 results, for comparison:
compound: COc1ccc2c(c1)[C@@]1(C[C@@H]1c1ccc3c(/C=C/c4ccc(N5CCN(C(C)C)CC5)cc4)n[nH]c3c1)C(=O)N2 (racemic) [Example A189, 2,2,2-trifluoroacetate]
metric: GI50
measured: < 100 nM

compound: COc1ccc2c(c1)[C@@]1(C[C@@H]1c1ccc3c(-c4ccc(N5CCNCC5)nc4)n[nH]c3c1)C(=O)N2 (racemic)
metric: GI50
measured: < 100 nM

compound: O=C1Nc2ccccc2[C@@]12C[C@@H]2c1ccc2c(/C=C/c3cccnc3)n[nH]c2c1 (racemic)
metric: GI50
measured: 1000 to 10000 nM

compound: CN1C(=O)[C@@]2(C[C@H]2c2ccc3c(/C=C/c4ccc(CN5CCOCC5)cc4)n[nH]c3c2)c2ccccc21 (racemic) [Example A87, 2,2,2-trifluoroacetate]
metric: GI50
measured: < 100 nM

compound: COc1ccc2c(c1)[C@@]1(C[C@@H]1c1ccc3c(-c4ccc(N5CCN(C)CC5)cc4)n[nH]c3c1)C(=O)N2C (racemic) [Example A100, 2,2,2-trifluoroacetate]
metric: GI50
measured: 100 to 1000 nM

Continue with the compound presented below.
Entry under review: CCN1CCN(c2ccc(/C=C/c3n[nH]c4cc([C@@H]5C[C@@]56C(=O)Nc5ccc(OC)cc56)ccc34)cc2)CC1 (racemic) [Example A188, 2,2,2-trifluoroacetate] . Reported GI50?
< 100 nM

###

System: A549 lung cancer cell line
test details: Cell growth inhibition, Sulforhodamine B assay (SRB)
Type: cell-based
run parameters: Homo sapiens, 120 h; A549 lung cancer cell line; 5 days culture; SRB; read-out: Cell Line GI50 Range A-549
Assign GI50 to each entry below.

Some compounds with known GI50 results, for comparison:
compound: COc1ccc2c(c1)[C@@]1(C[C@@H]1c1ccc3c(-c4ccc(N5CCN(C)CC5)cc4)n[nH]c3c1)C(=O)N2C (racemic) [Example A100, 2,2,2-trifluoroacetate]
experimental system: A549 lung cancer cell line
measured: < 100 nM

compound: NS(=O)(=O)c1cccc(-c2n[nH]c3cc([C@@H]4C[C@@]45C(=O)Nc4ccccc45)ccc23)c1 (racemic)
experimental system: A549 lung cancer cell line
measured: > 10000 nM

compound: COc1ccc2c(c1)[C@@]1(C[C@@H]1c1ccc3c(-c4ccc(N5CCC(N(C)C)CC5)cc4)n[nH]c3c1)C(=O)N2 (racemic)
experimental system: A549 lung cancer cell line
measured: < 100 nM

compound: COc1ccc2c(c1)[C@@]1(C[C@@H]1c1ccc3c(-c4cccc(CCO)c4)n[nH]c3c1)C(=O)N2 (racemic)
experimental system: A549 lung cancer cell line
measured: 1000 to 10000 nM

compound: Cc1ccc2c(c1)[C@@]1(C[C@@H]1c1ccc3c(-c4ccc(N5CCN(C)CC5)cc4)n[nH]c3c1)C(=O)N2 (racemic) [Example A173, 2,2,2-trifluoroacetate]
experimental system: A549 lung cancer cell line
measured: 100 to 1000 nM

compound: O=C1Nc2ccccc2[C@@]12C[C@@H]2c1ccc2c(/C=C/c3cccnc3)n[nH]c2c1 (racemic)
experimental system: A549 lung cancer cell line
measured: 1000 to 10000 nM

Provide the reported GI50 of each entry below, same order.
1. COc1ccc2c(c1)[C@@]1(C[C@@H]1c1ccc3c(-c4cccc(N5CCNCC5)c4)n[nH]c3c1)C(=O)N2 (racemic) [Example A47, 2,2,2-trifluoroacetate]
2. COc1ccc2c(c1)[C@@]1(C[C@@H]1c1ccc3c(-c4cccc(CO)c4)n[nH]c3c1)C(=O)N2 (racemic) [Example A43, 2,2,2-trifluoroacetate]
3. COc1ccc2c(c1)[C@@]1(C[C@@H]1c1ccc3c(/C=C/c4ccc(CCN5CCOCC5)cc4)n[nH]c3c1)C(=O)N2 (racemic) [Example A178, 2,2,2-trifluoroacetate]

1. 1000 to 10000 nM
2. 1000 to 10000 nM
3. < 100 nM

###

Tested on: MCF-7 luminal breast cancer cell line
test details: Cell growth inhibition, Sulforhodamine B assay (SRB)
Type: cell-based
run parameters: Homo sapiens, MCF7, 120 h; MCF-7 luminal breast cancer cell line; 5 days culture; SRB; read-out: Cell Line GI50 Range MCF-7
Assign GI50 to each entry below.

compound: COc1ccc2c(c1)[C@@]1(C[C@@H]1c1ccc3c(-c4ccc(CO)cc4)n[nH]c3c1)C(=O)N2 (racemic) [Example A45, 2,2,2-trifluoroacetate]
GI50: 1000 to 10000 nM
//
compound: O=C1Nc2ncc(Br)cc2[C@@]12C[C@@H]2c1ccc2c(/C=C/c3cccnc3)n[nH]c2c1 (racemic)
GI50: 1000 to 10000 nM
//
compound: COc1ccc2c(c1)[C@]1(C[C@H]1c1ccc3c(/C=C/c4cccc(CN5CCOCC5)c4)n[nH]c3c1)C(=O)N2 (racemic) [Example A133, 2,2,2-trifluoroacetate]
GI50: < 100 nM

Provide the reported GI50 of each entry below, same order.
1. COc1ccc2c(c1)[C@@]1(C[C@@H]1c1ccc3c(-c4cccc(CO)c4)n[nH]c3c1)C(=O)N2 (racemic) [Example A43, 2,2,2-trifluoroacetate]
2. COc1ccc2c(c1)[C@@]1(C[C@@H]1c1ccc3c(-c4ccc(N5CCN(C(C)C)CC5)cc4)n[nH]c3c1)C(=O)N2 (racemic)
3. COc1ccc2c(c1)[C@@]1(C[C@@H]1c1ccc3c(-c4ccnc(N5CCN(C)CC5)c4)n[nH]c3c1)C(=O)N2 (racemic)

1000 to 10000 nM
< 100 nM
> 10000 nM

###

experimental system: Aurora A (Homo sapiens, UniProt O14965)
Construct: purchased Invitrogen PV3612
Sequence (O14965 1-403): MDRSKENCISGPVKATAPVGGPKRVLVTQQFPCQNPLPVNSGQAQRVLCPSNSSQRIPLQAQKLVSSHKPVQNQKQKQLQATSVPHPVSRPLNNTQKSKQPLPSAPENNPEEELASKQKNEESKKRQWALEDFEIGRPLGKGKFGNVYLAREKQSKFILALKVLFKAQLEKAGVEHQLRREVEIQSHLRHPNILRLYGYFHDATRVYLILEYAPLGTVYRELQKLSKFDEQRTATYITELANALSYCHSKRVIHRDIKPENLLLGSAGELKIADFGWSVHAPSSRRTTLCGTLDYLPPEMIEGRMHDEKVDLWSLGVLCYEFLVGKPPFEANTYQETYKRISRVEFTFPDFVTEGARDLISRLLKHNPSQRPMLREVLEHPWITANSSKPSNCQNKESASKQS
test details: Aurora A Inhibition Assay (Z-Lyte)
Type: biochemical
run parameters: 1 μM compound; 20 μM ATP; read-out: Aurora A relative inhibition percentage at a dose of 1 μM
Assign inhibition at 1 µM to each entry below.

Some compounds with known inhibition at 1 µM results, for comparison:
compound: COc1ccc2c(c1)[C@@]1(C[C@@H]1c1ccc3c(/C=C/c4cc(F)c(CN5CCOCC5)c(F)c4)n[nH]c3c1)C(=O)N2 (racemic) [Example A217]
inhibition at 1 µM: > 50%
--
compound: COc1ccc2c(c1)[C@@]1(C[C@@H]1c1ccc3c(/C=C/c4csc(CN5CCOCC5)c4)n[nH]c3c1)C(=O)N2 (racemic) [Example A184, 2,2,2-trifluoroacetate]
inhibition at 1 µM: > 50%
--
compound: COc1ccc2c(c1)[C@@]1(C[C@@H]1c1ccc3c(-c4ccc(N5CCNCC5)cc4)n[nH]c3c1)C(=O)N2 (racemic) [Example A48, 2,2,2-trifluoroacetate]
inhibition at 1 µM: < 50%

Continue with the compound presented below.
Entry under review: COc1ccc2c(c1)[C@]1(C[C@H]1c1ccc3c(-c4ccc(N5CCNCC5)cc4)n[nH]c3c1)C(=O)N2 [Example A49, 2,2,2-trifluoroacetate] . Reported inhibition at 1 µM?
< 50%

###

Assign GI50 to each entry below.
Tested on: HCC1954 basal breast cancer cell line
test details: Cell growth inhibition, Sulforhodamine B assay (SRB)
Type: cell-based
run parameters: Homo sapiens, HCC1954, 120 h, HCC1954 basal breast cancer cell line; 5 days culture; SRB; read-out: Cell Line GI50 Range HCC-1954

Some compounds with known GI50 results, for comparison:
compound: COc1ccc2c(c1)[C@@]1(C[C@@H]1c1ccc3c(/C=C/c4csc(CN(C)C)c4)n[nH]c3c1)C(=O)N2 (racemic) [Example A181]
measured: 0.1 to 1 µM

compound: CN1C(=O)[C@@]2(C[C@H]2c2ccc3c(/C=C/c4ccc(CN5CCOCC5)cc4)n[nH]c3c2)c2ccccc21 (racemic) [Example A87, 2,2,2-trifluoroacetate]
measured: 1 to 10 µM

compound: O=C1Nc2ncc(Br)cc2[C@@]12C[C@@H]2c1ccc2c(/C=C/c3cccnc3)n[nH]c2c1 (racemic) [Example A27]
measured: 1 to 10 µM

compound: COc1ccc2c(c1)[C@@]1(C[C@@H]1c1ccc3c(-c4cccc(N5CCNCC5)c4)n[nH]c3c1)C(=O)N2 (racemic) [Example A47, 2,2,2-trifluoroacetate]
measured: 1 to 10 µM

compound: O=C1Nc2ccccc2[C@@]12C[C@@H]2c1ccc2c(/C=C/c3cccnc3)n[nH]c2c1 (racemic) [Example A28]
measured: 1 to 10 µM

Provide the reported GI50 of each entry below, same order.
1. COc1ccc2c(c1)[C@@]1(C[C@@H]1c1ccc3c(/C=C/c4ccc(N5CCN(C(C)C)CC5)cc4)n[nH]c3c1)C(=O)N2 (racemic) [Example A189, 2,2,2-trifluoroacetate]
2. COc1ccc2c(c1)[C@@]1(C[C@@H]1c1ccc3c(-c4ccc(N5CCN(C(C)C)CC5)cc4)n[nH]c3c1)C(=O)N2 (racemic) [Example A96]
3. COc1ccc2c(c1)[C@]1(C[C@H]1c1ccc3c(/C=C/c4cccc(CN(C)C)c4)n[nH]c3c1)C(=O)N2 (racemic) [Example A135, 2,2,2-trifluoroacetate]
4. COc1ccc2c(c1)[C@@]1(C[C@@H]1c1ccc3c(-c4ccc(N5CCC(N(C)C)CC5)cc4)n[nH]c3c1)C(=O)N2 (racemic) [Example A119]

["< 0.1 µM", "1 to 10 µM", "> 10 µM", "0.1 to 1 µM"]

Entry under review: COc1ccc2c(c1)[C@@]1(C[C@@H]1c1ccc3c(/C=C/c4ccc(CCN5CCOCC5)cc4)n[nH]c3c1)C(=O)N2 (racemic) [Example A178, 2,2,2-trifluoroacetate] . Reported GI50?
0.1 to 1 µM
